Target: mTORC2 (Homo sapiens, UniProt P42345+P62942)
Construct: endogenous in cells; host or cells: PC3 cells (human prostate adenocarcinoma)
Assay: Inhibition assay for mTORC2: phosphorylation of pAkt at Ser473, AlphaLISA SureFire in PC3 cells
Assay type: cell-based
Conditions: PC3 cells, 24 hours treatment, analogs substituted at C40 and C16 (C16 diastereomer mixtures not isolated), read-out: pIC50 mTORC2 (converted)
Protocol: The IC50s of the inhibition of mTORC1 and mTORC2 were determined in vitro by determining the phosphorylation of pS6K at position Thr389 (mTORC1 inhibition) and pAkt at Ser473 (mTORC2 inhibition). In vitro studies were performed with AiphaLISA® technology using PC3 cells (Prostate Adenocarcinoma; Human (Homo sapiens)). The cells were seeded in 96 well plates and were treated for 24 hours with the different compounds. […]
Recorded endpoint: IC50

For orientation, consider the following solved cases.
COCCOC1C[C@@H]2CC[C@@H](C)[C@@](O)(O2)C(=O)C(=O)N2CCCCC2C(=O)O[C@H]([C@H](C)C[C@@H]2CC[C@@H](OCCCN3CCO[C@H](C)C3)[C@H](OC)C2)CC(=O)[C@H](C)/C=C(\C)[C@@H](O)[C@@H](OC)C(=O)[C@H](C)C[C@H](C)/C=C/C=C/C=C/1C (stereo partly drawn)    1 to 10 µM
CO[C@@H]1C[C@H](C[C@@H](C)[C@@H]2CC(=O)[C@H](C)/C=C(\C)[C@@H](O)[C@@H](OC)C(=O)[C@H](C)C[C@H](C)/C=C/C=C/C=C(\C)C(OCCO)C[C@@H]3CC[C@@H](C)[C@@](O)(O3)C(=O)C(=O)N3CCCCC3C(=O)O2)CC[C@H]1OC(=O)NCCN1CCN(C)CC1 (stereo partly drawn)    > 10 µM

Turning now to a further compound:
Measured IC50 of CO[C@@H]1C[C@H](C[C@@H](C)[C@@H]2CC(=O)[C@H](C)/C=C(\C)[C@@H](O)[C@@H](OC)C(=O)[C@H](C)C[C@H](C)/C=C/C=C/C=C(\C)C(OCCO)C[C@@H]3CC[C@@H](C)[C@@](O)(O3)C(=O)C(=O)N3CCCCC3C(=O)O2)CC[C@H]1OCCCc1ccccc1 (stereo partly drawn) : > 10 µM
